# Tested on: MRSA
# experiment summary: antibacterial activity of antibiotics alone and in the presence of apigenin (4 μg/ml), MRSA
# Assay type: cell-based, methicillin-resistant Staphylococcus aureus
# assay setup: Staphylococcus aureus, MRSA, 20 h, Antibiotics alone; MRSA; read-out: MIC50
quantity kind: MIC50 (µg/mL)
State the answer as a number, implicitly in µg/mL.

Look up MIC50 of `CO[C@@]1(NC(=O)Cc2cccs2)C(=O)N2C(C(=O)O)=C(COC(N)=O)CS[C@@H]21` and report it.
250

Look up MIC50 of `CC1(C)S[C@@H]2[C@H](NC(=O)[C@H](N)c3ccccc3)C(=O)N2[C@H]1C(=O)O` and report it.
31.3
